SUBJECT OF TEST: Dual specificity protein phosphatase 1 (Homo sapiens)
Sequence (P28562 whole entry): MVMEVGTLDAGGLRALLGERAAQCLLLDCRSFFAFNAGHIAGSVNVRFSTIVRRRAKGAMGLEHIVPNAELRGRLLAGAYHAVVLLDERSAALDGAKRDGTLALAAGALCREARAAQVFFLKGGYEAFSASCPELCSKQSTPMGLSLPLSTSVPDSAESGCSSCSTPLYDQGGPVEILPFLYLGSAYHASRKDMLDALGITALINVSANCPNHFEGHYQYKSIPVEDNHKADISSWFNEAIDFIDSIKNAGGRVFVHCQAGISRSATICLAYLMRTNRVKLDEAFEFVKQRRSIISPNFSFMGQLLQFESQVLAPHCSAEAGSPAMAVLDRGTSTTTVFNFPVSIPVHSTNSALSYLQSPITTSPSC
pIC50: −log10 of the molar value.

- COMPOUND: "CCOC(=O)C(C(=O)OCC)c1cc(Br)c2noc3c2c1C(=O)c1ccccc1-3"
  SUBJECT OF TEST: "Dual specificity protein phosphatase 1 (Homo sapiens)"
  MODIFIER SIGN: "<"
  pIC50: 4.30
- COMPOUND: "Cn1ncnc2c(=O)n(C)c(=O)nc1-2"
  SUBJECT OF TEST: "Dual specificity protein phosphatase 1 (Homo sapiens)"
  MODIFIER SIGN: "="
  pIC50: 6.37
- COMPOUND: "Cc1ccccc1Nc1cc2ccccc2c(O)n1"
  SUBJECT OF TEST: "Dual specificity protein phosphatase 1 (Homo sapiens)"
  MODIFIER SIGN: "="
  pIC50: 5.06
- COMPOUND: "N#Cc1c(N2CCCC2)nc(N)c2c(N)nc(N3CCCC3)cc12"
  SUBJECT OF TEST: "Dual specificity protein phosphatase 1 (Homo sapiens)"
  MODIFIER SIGN: "="
  pIC50: 4.83
- COMPOUND: "O=C1C=Cc2ccccc2C1=O [1,2-dihydronaphthalene-1,2-dione]"
  SUBJECT OF TEST: "Dual specificity protein phosphatase 1 (Homo sapiens)"
  MODIFIER SIGN: "<"
  pIC50: 4.30
- COMPOUND: "Nc1cccc2cnccc12"
  SUBJECT OF TEST: "Dual specificity protein phosphatase 1 (Homo sapiens)"
  MODIFIER SIGN: "<"
  pIC50: 4.30
- COMPOUND: "CCn1nc(-c2ccccc2)nc2c(=O)n(C)c(=O)nc1-2"
  SUBJECT OF TEST: "Dual specificity protein phosphatase 1 (Homo sapiens)"
  MODIFIER SIGN: "="
  pIC50: 6.31
- COMPOUND: "COc1cccc2c1NC(C(=O)O)C1CC=CC21 (stereo unspecified)"
  SUBJECT OF TEST: "Dual specificity protein phosphatase 1 (Homo sapiens)"
  MODIFIER SIGN: "<"
  pIC50: 4.30
- COMPOUND: "CCn1nc(-c2cccs2)nc2c(=O)n(C)c(=O)nc1-2"
  SUBJECT OF TEST: "Dual specificity protein phosphatase 1 (Homo sapiens)"
  MODIFIER SIGN: "="
  pIC50: 6.48
- COMPOUND: "Cc1ccc2c(c1C)NC(C(=O)O)C1CC=CC21 (stereo unspecified)"
  SUBJECT OF TEST: "Dual specificity protein phosphatase 1 (Homo sapiens)"
  MODIFIER SIGN: "="
  pIC50: 4.37
- COMPOUND: "COc1ccc(Br)cc1C=c1sc2nc(-c3ccco3)nn2c1=O"
  SUBJECT OF TEST: "Dual specificity protein phosphatase 1 (Homo sapiens)"
  MODIFIER SIGN: "="
  pIC50: 5.15

====

SUBJECT OF TEST: Dual specificity protein phosphatase 1 (Homo sapiens)
Sequence (P28562 whole entry): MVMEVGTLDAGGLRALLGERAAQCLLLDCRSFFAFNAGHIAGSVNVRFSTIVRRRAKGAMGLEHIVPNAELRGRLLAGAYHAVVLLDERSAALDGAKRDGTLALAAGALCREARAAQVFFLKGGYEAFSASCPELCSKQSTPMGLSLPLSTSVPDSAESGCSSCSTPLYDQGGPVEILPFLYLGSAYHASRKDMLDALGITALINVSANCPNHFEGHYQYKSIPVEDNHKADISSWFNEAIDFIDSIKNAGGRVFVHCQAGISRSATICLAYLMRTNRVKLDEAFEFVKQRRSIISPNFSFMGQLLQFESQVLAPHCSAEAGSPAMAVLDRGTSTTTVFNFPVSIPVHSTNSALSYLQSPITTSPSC

- COMPOUND: "Cc1c(N=c2c(=O)c3ccccc3c2=O)c(=O)n(-c2ccccc2)n1C"
  MODIFIER SIGN: "="
  IC50 [µM]: 43.8
- COMPOUND: "O=C(OC1CCCCC1)c1ccc2c(c1)C1C=CCC1C(C(=O)O)N2 (centres undefined)"
  MODIFIER SIGN: "="
  IC50 [µM]: 4.61
- COMPOUND: "Oc1nc(Nc2ccccc2)cc2ccccc12"
  MODIFIER SIGN: "="
  IC50 [µM]: 10.7
- COMPOUND: "[O-]/[N+](=C\\c1ccc(OC(F)F)cc1)c1ccccc1"
  MODIFIER SIGN: ">"
  IC50 [µM]: 50

Values from BindingDB's records for doi:10.7270/Q28K77GS
